These data points were gathered from patent US4068070A.

Exercise: state measured Changes (%) of basal values, aortic blood flow for each of the molecules provided.
- Test system: aortic blood flow
- assayDetails: Effects on aortic blood flow
- Assay type: in vivo, mongrel adult dogs
- conditions: 20.0 mg/kg i.v., 1 min

Take a look at these entries with their results.
{"molecule": "CCOC(=O)N1CCN(C(C#N)c2ccc(OC)c(OC)c2)CC1 (stereo not shown)", "measValue": "+7.3%"}
{"molecule": "COc1ccc(C(C#N)N2CCN(CC(=O)N3CCCC3)CC2)cc1OC (stereo not shown)", "measValue": "+6.2%"}
{"molecule": "COc1ccc(C(C#N)N2CCN(CC=Cc3ccccc3)CC2)cc1OC (stereo not shown)", "measValue": "+16.3%"}

Turning to the following molecule.
Ask: Return Changes (%) of basal values, aortic blood flow for the following molecule: COc1ccc(C(C#N)N2CCCN(CC=Cc3ccccc3)CC2)cc1OC (stereo not shown)
Reply: +7.6%

----------
Exercise: state measured Changes (%) of basal values, aortic blood flow for each of the compounds provided.
- Tested on: aortic blood flow
- assayDetails: Effects on aortic blood flow
- Type: in vivo, mongrel adult dogs
- conditions: 2.0 mg/kg i.v., 30 min
- Protocol: All experiments were made on male and female thoractomized mongrel adult dogs weighing about 10 kg. under anesthesia with pentobarbital sodium. […] Arterial blood pressure was measured by pressure transducer (Nippon Koden MPU-0.5) connected with the cannula inserted from exposed carotid artery into aorta. Aortic blood flow was determined by means of electromagnetic flow meter (Nippon Koden MF-5) mounted at the origin of the aorta. […]
Answers are plain numbers, in %.

Take a look at these entries with their results.
{"compound": "COc1ccc(C(C#N)N2CCN(CC=Cc3ccccc3)CC2)cc1OC (stereo not shown)", "unitAbbreviation": "%", "measValue": 0}
{"compound": "CCOC(=O)CN1CCN(C(C#N)c2ccc(OC)c(OC)c2)CC1 (stereo not shown)", "unitAbbreviation": "%", "measValue": 0}
{"compound": "COc1ccc(C(C#N)N2CCCN(CC=Cc3ccccc3)CC2)cc1OC (stereo not shown)", "unitAbbreviation": "%", "measValue": 0}
{"compound": "COc1ccc(C(C#N)N2CCNCC2)cc1OC (stereo not shown)", "unitAbbreviation": "%", "measValue": 0}

Turning to the following compound.
Ask: With aortic blood flow as the test system, provide measured Changes (%) of basal values, aortic blood flow for this compound: COc1ccc(C(C#N)N2CCN(CC(=O)N3CCCC3)CC2)cc1OC (stereo not shown)
Reply: -0.1

----------
- System: coronary sinus out flow
- assayDetails: Effects on coronary sinus out flow
- Format: in vivo, mongrel adult dogs
- conditions: 2.0 mg/kg i.v., 10 min
Exercise: state measured Changes(%) of basal values, coronary sinus out flow for each of the compounds provided.
Numbers only, in %.

Take a look at these entries with their results.
{"compound": "COc1ccc(C(C#N)N2CCCN(CC=Cc3ccccc3)CC2)cc1OC (stereo not shown) [Compound E]", "unitAbbreviation": "%", "measValue": -1.0}
{"compound": "COc1ccc(C(C#N)N2CCN(CC=Cc3ccccc3)CC2)cc1OC (stereo not shown) [Compound D]", "unitAbbreviation": "%", "measValue": -1.0}

Ask: With coronary sinus out flow as the test system, provide measured Changes(%) of basal values, coronary sinus out flow for this compound: COc1ccc(C(C#N)N2CCNCC2)cc1OC (stereo not shown) [Compound F]
Reply: -4.4

----------
- System: coronary sinus out flow
- assayDetails: Effects on coronary sinus out flow
- Assay type: in vivo, mongrel adult dogs
- conditions: 6.0 mg/kg i.v., 30 min
- Procedure: All experiments were made on male and female thoractomized mongrel adult dogs weighing about 10 kg. under anesthesia with pentobarbital sodium. […] Arterial blood pressure was measured by pressure transducer (Nippon Koden MPU-0.5) connected with the cannula inserted from exposed carotid artery into aorta. Aortic blood flow was determined by means of electromagnetic flow meter (Nippon Koden MF-5) mounted at the origin of the aorta. […]
quantityName: Changes(%) of basal values, coronary sinus out flow

{"compound": "COc1ccc(C(C#N)N2CCN(CC(=O)N3CCCC3)CC2)cc1OC (centres unmarked)", "measValue": "+14.3%"}
{"compound": "COc1ccc(C(C#N)N2CCN(CC=Cc3ccccc3)CC2)cc1OC (centres unmarked)", "measValue": "0%"}
{"compound": "CCOC(=O)N1CCN(C(C#N)c2ccc(OC)c(OC)c2)CC1 (centres unmarked)", "measValue": "+8.0%"}
{"compound": "COc1ccc(C(C#N)N2CCCN(CC=Cc3ccccc3)CC2)cc1OC (centres unmarked)", "measValue": "+1.5%"}

Turning to the following compound.
Ask: Return Changes(%) of basal values, coronary sinus out flow for the following compound: COc1ccc(C(C#N)N2CCNCC2)cc1OC (centres unmarked)
Reply: -5.3%

----------
- Test system: heart rate
- assayDetails: Effects on heart rate
- Format: in vivo, mongrel adult dogs
- conditions: 2.0 mg/kg i.v., 10 min
Counter-ions that a name gives are not always drawn.
Exercise: state measured Changes(%) of basal values, heart rate for each of the molecules provided.
Numbers only, in %.

Take a look at these entries with their results.
{"molecule": "COc1ccc(CN2CCNCC2)c(OC)c1OC [Vastarel F, dihydrochloride, reference compound]", "target": "heart rate", "unitAbbreviation": "%", "measValue": -1.5}
{"molecule": "CCOC(=O)N1CCN(C(C#N)c2ccc(OC)c(OC)c2)CC1 (stereo not shown)", "target": "heart rate", "unitAbbreviation": "%", "measValue": -0.4}
{"molecule": "COc1ccc(C(C#N)N2CCNCC2)cc1OC (stereo not shown)", "target": "heart rate", "unitAbbreviation": "%", "measValue": -2.3}
{"molecule": "COc1ccc(C(C#N)N2CCCN(CC=Cc3ccccc3)CC2)cc1OC (stereo not shown)", "target": "heart rate", "unitAbbreviation": "%", "measValue": -1.3}
{"molecule": "COc1ccc(C(C#N)N2CCN(CC(=O)N3CCCC3)CC2)cc1OC (stereo not shown)", "target": "heart rate", "unitAbbreviation": "%", "measValue": -0.2}
{"molecule": "CCOC(=O)CN1CCN(C(C#N)c2ccc(OC)c(OC)c2)CC1 (stereo not shown)", "target": "heart rate", "unitAbbreviation": "%", "measValue": -0.7}

Turning to the following molecule.
Ask: Return Changes(%) of basal values, heart rate for the following molecule: COc1ccc(C(C#N)N2CCN(CC=Cc3ccccc3)CC2)cc1OC (stereo not shown)
Reply: 0

----------
- Tested on: coronary sinus out flow
- assayDetails: Effects on coronary sinus out flow
- Format: in vivo, mongrel adult dogs
- conditions: 20.0 mg/kg i.v., 1 min
quantityName: Changes(%) of basal values, coronary sinus out flow

{"molecule": "COc1ccc(C(C#N)N2CCN(CC(=O)N3CCCC3)CC2)cc1OC (stereo not shown) [Compound C]", "measValue": "+103.2%"}

Would you mind giving Changes(%) of basal values, coronary sinus out flow for every molecule in the list below?
1. CCOC(=O)N1CCN(C(C#N)c2ccc(OC)c(OC)c2)CC1 (stereo not shown) [Compound A]
2. COc1ccc(C(C#N)N2CCN(CC=Cc3ccccc3)CC2)cc1OC (stereo not shown) [Compound D]
3. COc1ccc(C(C#N)N2CCCN(CC=Cc3ccccc3)CC2)cc1OC (stereo not shown) [Compound E]

Reply:
1: +34.3%; 2: +49.3%; 3: +64.3%

----------
- Test system: aortic blood flow
- assayDetails: Effects on aortic blood flow
- Format: in vivo, mongrel adult dogs
- conditions: 6.0 mg/kg i.v., imm.
quantityName: Changes (%) of basal values, aortic blood flow

Take a look at these entries with their results.
{"molecule": "COc1ccc(C(C#N)N2CCN(CC=Cc3ccccc3)CC2)cc1OC (centres unmarked) [Compound D]", "measValue": "+12.0%"}
{"molecule": "CCOC(=O)N1CCN(C(C#N)c2ccc(OC)c(OC)c2)CC1 (centres unmarked) [Compound A]", "measValue": "+4.3%"}
{"molecule": "COc1ccc(C(C#N)N2CCNCC2)cc1OC (centres unmarked) [Compound F]", "measValue": "+20.5%"}
{"molecule": "COc1ccc(C(C#N)N2CCN(CC(=O)N3CCCC3)CC2)cc1OC (centres unmarked) [Compound C]", "measValue": "+8.5%"}

Ask: Return Changes (%) of basal values, aortic blood flow for the following molecule: COc1ccc(C(C#N)N2CCCN(CC=Cc3ccccc3)CC2)cc1OC (centres unmarked) [Compound E]
Reply: +11.7%

----------
- Tested on: coronary sinus out flow
- assayDetails: Effects on coronary sinus out flow
- Type: in vivo, mongrel adult dogs
- conditions: 6.0 mg/kg i.v., 1 min
Exercise: state measured Changes(%) of basal values, coronary sinus out flow for each of the compounds provided.

Take a look at these entries with their results.
{"compound": "COc1ccc(C(C#N)N2CCN(CC(=O)N3CCCC3)CC2)cc1OC (centres unmarked)", "measValue": "+50.7%"}
{"compound": "COc1ccc(C(C#N)N2CCNCC2)cc1OC (centres unmarked)", "measValue": "+68.6%"}
{"compound": "COc1ccc(C(C#N)N2CCCN(CC=Cc3ccccc3)CC2)cc1OC (centres unmarked)", "measValue": "+24.3%"}

Would you mind giving Changes(%) of basal values, coronary sinus out flow for every compound in the list below?
1. CCOC(=O)N1CCN(C(C#N)c2ccc(OC)c(OC)c2)CC1 (centres unmarked)
2. COc1ccc(C(C#N)N2CCN(CC=Cc3ccccc3)CC2)cc1OC (centres unmarked)

Reply:
1: +16.6%; 2: +9.1%
